Molecular target: T1, human CD63 (human, UniProt P08962 2-238)
T1 construct: stably transfected in NIH3T3/hCD63; The cell line is named under assay; also called hCD63
T1 sequence: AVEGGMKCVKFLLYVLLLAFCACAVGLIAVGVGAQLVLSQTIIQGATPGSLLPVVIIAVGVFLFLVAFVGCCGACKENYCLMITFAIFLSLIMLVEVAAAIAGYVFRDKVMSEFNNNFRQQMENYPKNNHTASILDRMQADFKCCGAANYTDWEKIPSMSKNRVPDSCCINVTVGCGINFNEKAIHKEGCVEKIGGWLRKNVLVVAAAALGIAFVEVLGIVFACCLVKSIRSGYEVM
Experiment: ECL, NIH3T3/hCD63 cells
recorded.endpoint: binding ratio at 3.7 nM vs NIH3T3
Remember to put the unit after the number in your answer.

H2M12387N (antibody, V domains shown, also called H2aM12387N) VH: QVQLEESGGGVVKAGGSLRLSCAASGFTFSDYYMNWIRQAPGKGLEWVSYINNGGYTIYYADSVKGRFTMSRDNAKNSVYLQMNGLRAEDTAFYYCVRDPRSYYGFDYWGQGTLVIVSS VL: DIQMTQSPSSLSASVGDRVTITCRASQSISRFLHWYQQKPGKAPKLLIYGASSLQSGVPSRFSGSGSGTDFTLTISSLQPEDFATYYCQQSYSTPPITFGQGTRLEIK ... 228 fold
H2M12450N (antibody, V domains shown, also called H2aM12450N; mAb12450) VH: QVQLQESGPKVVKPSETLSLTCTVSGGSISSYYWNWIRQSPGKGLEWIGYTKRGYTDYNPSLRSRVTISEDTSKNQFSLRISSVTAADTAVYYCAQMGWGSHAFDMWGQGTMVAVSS VL: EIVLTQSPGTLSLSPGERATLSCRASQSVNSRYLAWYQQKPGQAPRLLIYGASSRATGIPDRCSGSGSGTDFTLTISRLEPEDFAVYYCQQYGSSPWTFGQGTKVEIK ... 281 fold
H1M12362N (antibody, V domains shown) VH: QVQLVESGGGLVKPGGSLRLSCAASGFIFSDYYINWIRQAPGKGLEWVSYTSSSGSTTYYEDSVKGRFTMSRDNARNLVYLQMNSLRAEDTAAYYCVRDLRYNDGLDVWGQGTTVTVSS VL: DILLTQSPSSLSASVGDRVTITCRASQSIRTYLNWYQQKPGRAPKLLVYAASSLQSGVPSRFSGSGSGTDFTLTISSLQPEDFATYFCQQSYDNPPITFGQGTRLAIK ... 283 fold

API: the following record is the query input.
The binder H1M12388N (antibody, V domains shown) VH: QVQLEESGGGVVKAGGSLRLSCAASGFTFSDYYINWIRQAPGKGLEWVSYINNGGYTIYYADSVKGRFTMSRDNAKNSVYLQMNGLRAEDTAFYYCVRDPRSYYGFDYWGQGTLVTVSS VL: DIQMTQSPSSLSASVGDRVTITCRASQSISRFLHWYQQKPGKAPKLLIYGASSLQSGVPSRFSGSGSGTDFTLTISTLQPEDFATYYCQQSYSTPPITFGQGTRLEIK showed binding ratio at 3.7 nM vs NIH3T3 equal to 434 fold
